Below, each entry is listed alongside its reported EC50, CreLuc assay, 0.5% hP.
# study.target: human GLP-1 receptor (human, UniProt P43220 24-463)
# protocol.notes: cell-based or functional assay
Starred links: 1 amine or outer side, 2 acyl side, 3 side chain; linkers in the order of their positions; H or OH if unused. Non-standard residues stand in square brackets, D forms with d. Groups on a side chain read outwards from the residue. No end group written: not given here. *: point of attachment. C18 diacid = O=C(O)CCCCCCCCCCCCCCCCC(=O)*; εLys = N[C@@H](CCCCN[*:1])C(=O)[*:2]; Aib = CC(C)(N)C(=O)O
State the answer as a number, implicitly in pM.

The following binders have reported results that may help.
{"binder": "YXEGTFTSDYSIXLEKQAQXAFVQWLIKGGPSEYVSLRHYYNWLTRQRY (Aib at 2, 13, 20; K28 side chain: C20DA-gGlu-gGlu-gGlu-gGlu-gGlu-gGlu-eLys; C-terminal NH2) [Compound 78]", "EC50, CreLuc assay, 0.5% hP (pM)": 640}
{"binder": "YXEGTFTSDYSIXLEKQAQXAFVEWLIKGGPRYYASLRHYYNWLTRQRY (Aib at 2, 13, 20; K28 side chain: C20DA-gGlu-gGlu-gGlu-gGlu-gGlu-gGlu-eLys; C-terminal NH2) [Compound 62]", "EC50, CreLuc assay, 0.5% hP (pM)": 780}
{"binder": "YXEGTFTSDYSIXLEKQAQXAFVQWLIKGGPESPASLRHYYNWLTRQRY (Aib at 2, 13, 20; K28 side chain: C18DA-gGlu-gGlu-gGlu-gGlu-gGlu; C-terminal NH2) [Compound 12]", "EC50, CreLuc assay, 0.5% hP (pM)": 110}
{"binder": "YXEGTFTSDYSIXLEKQAQXAFVEWLIKGGPSEPQSIRHYYNWLTRQRY (Aib at 2, 13, 20; K28 side chain: C20DA-gGlu-gGlu-gGlu-gGlu-gGlu-gGlu-eLys; C-terminal NH2) [Compound 48]", "EC50, CreLuc assay, 0.5% hP (pM)": 70}
{"binder": "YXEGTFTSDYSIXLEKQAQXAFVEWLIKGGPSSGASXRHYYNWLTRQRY (Aib at 2, 13, 20, 37; DTyr 49; K28 side chain: C20DA-gGlu-gGlu-gGlu-gGlu-gGlu-gGlu-eLys; C-terminal NH2) [Compound 74]", "EC50, CreLuc assay, 0.5% hP (pM)": 80}
{"binder": "YXEGTFTSDYSIXLEKQAQXAFVQWLIKGGPSSYVSLRHYYNWLTRQRY (Aib at 2, 13, 20; K28 side chain: C20DA-gGlu-gGlu-gGlu-gGlu-gGlu-gGlu-eLys; C-terminal NH2) [Compound 15]", "EC50, CreLuc assay, 0.5% hP (pM)": 160}

EC50, CreLuc assay, 0.5% hP lookup needed for YXEGTFTSDYSIXLEAAKQXAFVEWLIKGGPSSGASLRHYYNWLTRQRY (Aib at 2, 13, 20; K28 side chain: C20DA-gGlu-gGlu-gGlu-gGlu-gGlu-gGlu-eLys; C-terminal NH2) [Compound 25] , thanks.
670

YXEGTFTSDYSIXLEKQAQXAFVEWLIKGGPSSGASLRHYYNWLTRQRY (Aib at 2, 13, 20; DHis 39; DArg 46; DTyr 49; K28 side chain: C20DA-gGlu-gGlu-gGlu-gGlu-gGlu-gGlu-eLys; C-terminal NH2) [Compound 21] ?
110

Same thing, different binder: YXDGTFTSDYSIXLEKQAQXAFVEWLIKGGPSSGASLRHYYNWLTRQRY (Aib at 2, 13, 20; K28 side chain: C20DA-gGlu-gGlu-gGlu-gGlu-gGlu-gGlu-eLys; C-terminal NH2) [Compound 87]
80

How about Y[Aib]EGTFTSDYSI[Aib]LEKQAQ[Aib]AFVQWLIK([εLys-Glu-Glu-Glu-Glu-Glu-C18 diacid])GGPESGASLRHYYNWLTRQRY-NH2 (also: TFA salt) [Compound 63] ?
80

Input YXEGTFTSDYSIXLEKQAQXAFVEWLIKGGPSSGVSXRHYYNWLTRQRY (Aib at 2, 13, 20, 37; K28 side chain: C20DA-gGlu-gGlu-gGlu-gGlu-gGlu-gGlu-eLys; C-terminal NH2) [Compound 38]
60
